# target: F1Fo-ATPase
# experimental-details: Inhibition of the F1Fo-ATPase
# Format: biochemical
# measurement-context: binds to the OSCP in F1
reported-property: Ki

[in] Supply measured Ki of CN1C(=O)C(Cc2ccc3ccccc3c2)N=C(c2ccc(O)cc2)c2cc(Cl)ccc21 (stereo not shown) in your reply.
[out] ~9 µM
